Biological target: T1, His-Tagged human CD38 recombinant protein (human) (UniProt P28907)
T1 sequence (P28907 whole entry, looked up): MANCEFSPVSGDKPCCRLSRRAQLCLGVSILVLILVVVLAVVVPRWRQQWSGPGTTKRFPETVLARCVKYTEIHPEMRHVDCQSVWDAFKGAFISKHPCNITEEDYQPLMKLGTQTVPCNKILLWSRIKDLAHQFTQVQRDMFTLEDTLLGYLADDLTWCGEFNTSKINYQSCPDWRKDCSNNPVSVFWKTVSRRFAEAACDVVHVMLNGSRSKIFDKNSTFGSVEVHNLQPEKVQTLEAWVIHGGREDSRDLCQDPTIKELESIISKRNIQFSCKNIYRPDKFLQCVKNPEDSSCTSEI
Assay: SPR
*1 amine or outer side, *2 acyl side, *3 side chain or, on linkers, in order; H or OH if unused. Bridges are numbered along the chain shown (N, C = ends). Primed or numbered codes have the meaning given here. The star is where a group is joined. PEG3′ = three-unit polyethylene glycol linker; NOTA = O=C(O)CN1CCN(CC(=O)O)CCN(CC(=O)*)CC1; TBMB = c1c(C[*:1])cc(C[*:3])cc1C[*:2]
quantity_measured: Kd (nM)
# number only, unit nM dropped from output

Prompt: Any idea what its Kd is? The binder is {NOTA-PEG3′}-ACVPCADFPIWYC-NH2 (linker 2-5-13 via TBMB) [AJ206 (NOTA-conjugated bicyclic peptide)]
Completion: 19.1

Entry source: paper doi:10.1101/2023.05.09.540036
